# TEST_DESCRIPTION: log P by HPLC on reversed-phase column, acidic range
# Assay type: physicochemical
# CONDITION_DESCRIPTION: reversed-phase HPLC column (C 18); pH 2.7, 0.1% aqueous formic acid and acetonitrile, C 18 column, 55° C.; read-out: log P (HCOOH)
REPORTED_METRIC: chromatographic logP

// solved cases for chromatographic logP follow
COC(=O)c1nn2ccc(C(F)(F)F)cc2c1C(=O)OC	2.57
O=C(O)c1cc2n(n1)CCC(C(F)(F)F)C2 (stereo not drawn)	1.28
Cn1c(-c2nn3c(c2Br)CC(C(F)(F)F)CC3)nc2cc(C(F)(F)F)cnc21 (stereo not drawn)	3.99
O=C(O)c1cc2cc(C(F)(F)F)ccn2n1	1.58
CCS(=O)(=O)c1c(-c2nc3cc(C(F)(F)F)cnc3n2C)nn2c1CC(C(F)(F)F)CC2 (stereo not drawn) [Example I-01]	3.21

Now look at this one.
[in] Would you mind telling me what chromatographic logP value was observed for O=C(O)c1nn2c(c1Br)CC(C(F)(F)F)CC2 (stereo not drawn) ?
[out] 1.75

###

Item-by-item account of efficacy (kill in %)
# System: Ctenocephalides felis
# TEST_DESCRIPTION: Ctenocephalides felis oral test
# Assay type: in vivo
# CONDITION_DESCRIPTION: application rate 100 ppm in citrated cattle blood, after 2 days, adult cat fleas
Reply with a number, then the unit it belongs to.

CCS(=O)(=O)c1c(-c2nc3cc(S(=O)(=O)C(F)(F)F)cnc3n2C)nn2c1CCC(C)C2 (centres unmarked)	90%
CCS(=O)(=O)c1c(-c2nc3cc(SC(F)(F)F)cnc3n2C)nn2c1CCC(C)C2 (centres unmarked)	100%
CCS(=O)(=O)c1c(-c2nc3cc(C(F)(F)C(F)(F)F)ncc3n2C)nn2c1CC(C)CC2 (centres unmarked)	100%
CCS(=O)(=O)c1c(-c2nc3cc(C(F)(F)F)ncc3n2C)nn2c1CCCC2	90%

Now look at this one.
[in] Would you mind telling me what efficacy (kill in %) value was observed for CCS(=O)(=O)c1c(-c2nc3cc(C(F)(F)F)ncc3n2C)nn2c1CC(C)CC2 (centres unmarked) ?
[out] 95%

###

# Test system: Myzus persicae
# TEST_DESCRIPTION: Myzus persicae spray test
# Type: in vivo
# CONDITION_DESCRIPTION: foliar, 120 h, application rate 100 g/ha, after 5 days, Chinese cabbage leaf discs, read-out: efficacy (aphids killed)
REPORTED_METRIC: pest or weed control at 100 g/ha (%)
Express it in %; write the number only.

// solved cases for pest or weed control at 100 g/ha follow
CCS(=O)(=O)c1c(-c2nc3cc(C(F)(F)C(F)(F)F)ncc3n2C)nn2c1CC(C)CC2 (stereo not shown)	90
CCS(=O)(=O)c1c(-c2nc3cc(C(F)(F)F)ncc3n2C)nn2c1CCCC2	90
CCS(=O)(=O)c1c(-c2nc3cc(C(F)(F)F)ncc3n2C)nn2c1CCC(C)C2 (stereo not shown)	90
CCS(=O)(=O)c1c(-c2nc3cc(C(F)(F)F)ncc3n2C)nn2c1CC(C)CC2 (stereo not shown)	100
CCS(=O)(=O)c1c(-c2nc3cc(C(F)(F)F)ncc3n2C)nn2c1CC(C(F)(F)F)CC2 (stereo not shown)	100
CCS(=O)(=O)c1c(-c2nc3c(n2C)CN(C)C(C(F)(F)F)=C3)nn2c1CCC(C(F)(F)F)C2 (stereo not shown)	90
CCS(=O)(=O)c1c(-c2nc3cc(C(F)(F)F)cnc3n2C)nn2c1CC(C)CC2 (stereo not shown)	90
CCS(=O)(=O)c1c(-c2nc3cc(SC(F)(F)F)cnc3n2C)nn2c1CCC(C)C2 (stereo not shown)	90
CCS(=O)(=O)c1c(-c2nc3cc(S(=O)(=O)C(F)(F)F)cnc3n2C)nn2c1CCC(C)C2 (stereo not shown)	90
CCS(=O)(=O)c1c(-c2nc3cc([S+]([O-])C(F)(F)F)cnc3n2C)nn2c1CCC(C)C2 (stereo not shown)	100

[in] Would you mind telling me what pest or weed control at 100 g/ha value was observed for CCS(=O)(=O)c1c(-c2nc3cc(C(F)(F)F)cnc3n2C)nn2c1CCCC2 ?
[out] 90

[in] Then CCS(=O)(=O)c1c(-c2nc3cc(C(F)(F)C(F)(F)F)ncc3n2C)nn2c1CCCC2 ?
[out] 90

[in] Then CCS(=O)(=O)c1c(-c2nc3cc(OC(F)(F)F)cnc3n2C)nn2c1CCC(C)C2 (stereo not shown) ?
[out] 90
